Assay Method Text: Inhibition of hypoxia-induced HIF1alpha protein accumulation in human Hep3B cells treated for 30 mins measured after 12 hrs by Western blot analysis
Measure: IC50 (µM)

Examples from the recorded data:
Compound: CC(C)=CC[C@]12Oc3cc(O)c([C@H]4C=C(C)C[C@H](c5ccc(O)cc5O)[C@H]4C(=O)c4ccc(O)cc4O)c(O)c3C(=O)[C@@]1(O)Oc1cc(O)ccc12 [sanggenon C]
Units Text: µM
IC50: 1.26

Compound: COc1c(O)cc2oc(-c3cc(O)cc(O)c3)cc2c1CC(=O)C(C)C [Moracin Q]
Units Text: µM
IC50: 5.88

Compound: CC(C)=CCC/C(C)=C/Cc1c(O)ccc2cc(-c3cc(O)cc(O)c3CC=C(C)C)oc12 [mulberrofuran D]
Units Text: µM
IC50: 4.05

Compound: C[C@@]12C=C(c3c(O)cc(-c4cc5ccc(O)cc5o4)cc3O)C[C@@H](C1)c1ccc(O)cc1O2 [Mulberrofuran H]
Units Text: µM
IC50: 0.14

Compound: CC1(C)Oc2cc3oc(-c4cc(O)cc(O)c4)cc3cc2C[C@H]1O [(-)-Moracin P]
Units Text: µM
IC50: 0.00065

[a] CC1=C[C@H]2c3c(O)cc(-c4cc5ccc(O)cc5o4)cc3O[C@@]3(c4ccc(O)cc4O)Oc4cc(O)ccc4[C@H](C1)[C@@H]23 [CHEBI:2544]
[b] CC(C)=CC[C@@]12Oc3cc(O)c([C@H]4C=C(C)C[C@H](c5ccc(O)cc5O)[C@H]4C(=O)c4ccc(O)cc4O)c(O)c3C(=O)[C@]1(O)Oc1cc(O)ccc12 [Sanggenon O]
a or b : whose IC50 is greater? Respond with the label that goes with your answer. a

---

Assay Method Text: Inhibition of hypoxia-induced HIF1alpha protein accumulation in human Hep3B cells treated for 30 mins measured after 12 hrs by Western blot analysis
Measure: IC50 (µM)

Compound: CC(C)=CCC/C(C)=C\CC/C(C)=C\Cc1c(O)cc(O)cc1-c1cc2ccc(O)cc2o1
Units Text: µM
IC50: 3.62

[A] CC(C)=CCC/C(C)=C/Cc1c(O)cc(O)cc1-c1cc2ccc(O)cc2o1
[B] CC(C)(O)C1Cc2cc3cc(-c4cc(O)cc(O)c4)oc3cc2O1 (centres undefined)
A or B : whose IC50 is greater? Respond with the label that goes with your answer. A
